# Tested on: SK-MEL-2 melanoma
# protocolSummary: NCI-60 one-dose screen, 48 h
# recordedConditions: 10 µM unless noted
Compounds without any hit were thinned out: in the full panel of roughly 83,000, 20% have a hit. Activity calls are given as the source filed them. The calls were made as follows: active = growth percent below 10; inactive = the rest.
Thanks in advance; please answer with one of these: t (active), f (inactive)

Request: Just curious, what result did NC(=O)CNc1ccc([As]=[As]c2ccc(NCC(N)=O)cc2)cc1 (stereo unspecified) get here?
Result: f

====

# Tested on: DU-145 prostate
# protocolSummary: NCI-60 one-dose screen, 48 h (100 = growth as untreated, 0 = no growth, -100 = all killed)
# recordedConditions: 10 µM unless noted
About 83,000 compounds went through this panel and 20% of them were active in at least one assay; those are over-represented in the sample as a whole.
Below: a set of entries, each annotated with reported growth.
Write down the numeric answer in % and omit the unit.

Example cases with answers are listed next.
COC(=O)[C@@H](C)C[C@H](Cc1ccccc1)NC(=O)c1csc([C@@H](C[C@H](C(C)C)N(C)C(=O)C2(NC(=O)[C@H]3CCCCN3C)CCC2)OC(C)=O)n1 ... 2.83
COC(=O)C1OC(Oc2ccc(N(CCCl)CCCl)cc2)C(OC(C)=O)C(OC(C)=O)C1OC(C)=O (configuration not stated) ... 104
CC(=O)O[C@H]1CC[C@@]2(C)C(=CC[C@H]3[C@@H]4C[C@@H](N5CC5)[C@H](C(C)=O)[C@@]4(C)CC[C@@H]32)C1 ... 105
C=CC1=C[C@@H]2[C@@H]3O[C@]4(CC[C@H](O4)[C@@H](C)C[C@@H](O)C3=O)C[C@H](O)C3=NCC[C@@]32CC1 ... -26.7
C[CH2][Sn]([Cl])([Cl])[CH2]C.Oc1ccccc1C=NCCN=Cc1ccccc1O ... 111
Cn1cc(-c2csc(-c3cn(CCCCN4CCCCC4)c4ccc(F)cc34)n2)c2cccnc21 ... -81

Request: Dear colleague, I am looking for the recorded growth of the following molecule: "C[C@]12C[C@@H](CO)[C@H](O)C[C@@H]1CC[C@@H]1[C@@H]2CC[C@]2(C)[C@@H](O)CC[C@@H]12"
Result: 106

Request: What does the data say about its growth? Entry: "CC(=O)c1ccc(C(=O)NCC2CCC3(CC2)OOC2(CCCCC2)OO3)cc1"
Result: 32.8

====

# Tested on: HS 578T breast
# protocolSummary: NCI-60 one-dose screen, 48 h
# recordedConditions: 10 µM unless noted
This is part of a sample that, as a whole, favours compounds with a hit. Of some 83,000 tested, about 20% had one in any assay. The source made the active and inactive calls. The calls were made as follows: active = growth percent below 10; inactive = the rest.
Respond using exactly one of the listed classes: active, inactive

Example entries and their recorded answers appear below.
COc1ccc(C/C(C)=C(\c2ccc(OCCN3CCOCC3)cc2)c2ccc(OC(=O)Cc3ccccc3)cc2)cc1 ... active
COC1OC(CO)C(O)C(O)[CH]1[Hg][O]C(C)=O (centres undefined) ... inactive
COC(=O)[C@@H](C)C[C@H](Cc1ccccc1)NC(=O)c1nc([C@@H](C[C@H](C(C)C)N(C)C(=O)[C@@H](NC(=O)[C@H]2C[C@H](O)CCN2C)C(C)C)OC(C)=O)sc1C(C)C ... active
COC(=O)[C@]12CCC(C)(C)C[C@H]1[C@H]1C(=O)C[C@@H]3[C@@]4(C)C[C@@]5(CC(C)(C)[C@@H]4CC[C@@]3(C)[C@]1(C)CC2)OO[C@@](C)(C(F)(F)F)O5 ... inactive
CC(C)=CCC/C(C)=C/C=N\N=C(/N)N[N+](=O)[O-] ... inactive
CCN1C(=O)C(=C/C=C/c2ccccc2)C(=O)N(CC)C1=O ... inactive
[Au+].[N-]=C=O.c1ccc(CN2[CH-]N(Cc3ccccc3)C(c3ccccc3)=C2c2ccccc2)cc1 ... inactive
O=C1C2C(C(=O)[N]1[Hg][c]1cccs1)C1(Cl)C(Cl)=C(Cl)C2(Cl)C1(Cl)Cl (centres undefined) ... inactive

Request: What did the test return for "COP(=S)(N1CC1)N1CC1" ?
Result: inactive

Request: Test call, this molecule: "CCCCCCCCCCCCCC[P+](CCCCCC)(CCCCCC)CCCCCC"
Result: active

Request: Give the logged outcome of this assay for the following molecule: "Oc1c(O)c(Cl)c(Cl)c(Cl)c1Cl"
Result: inactive
